Entry source: patent US20040204577A1

Tested on: peptide-forming enzyme (Mono S fraction enzyme)
Experiment: Enzyme substrate specificity (1)-(10), (13), (14): peptide production
Format: biochemical, Empedobacter brevis
Conditions: 100 mM L-alanine methyl ester hydrochloride, L-amino acid 150 mM, pH 9.0, 25° C., 3 hours
Where a SMILES comes first, the peptide text is derived from it.
recorded-endpoint: Formed peptide
Hey, just the number and the unit after it is fine.

For CC(C)C[C@H](NC(=O)[C@H](C)N)C(=O)O [L-Ala-L-Leu] (H-Ala-Leu-OH) , what is its reported Formed peptide? 45.3 mM

For C[C@H](N)C(=O)N[C@@H](CC(N)=O)C(=O)O [L-Ala-L-Asn] (H-Ala-Asn-OH) , what is its reported Formed peptide? 65.5 mM

For CC(C)[C@H](NC(=O)[C@H](C)N)C(=O)O [L-Ala-L-Val] (H-Ala-Val-OH) , what is its reported Formed peptide? 20.8 mM
